test system: COLO 205 colon; experiment: NCI tumour cell line growth inhibition, 48 h; in the data active means GI50 below about 0.43 µM; inactive means the rest
Answer with one of the outcomes Yes (active), No (inactive)

molecule	system	cat
COc1ccc(Cn2c(Br)c3c(c2-c2cc(OC)c(OC)c(OC)c2)CCc2sc(NC(C)=O)nc2-3)cc1	COLO 205 colon	No

Prompt line: In this assay, the call recorded for CCCCCCCCCC(CCCC(O)CC(=O)O)OC1OC(COC2OC(C)C(O)C(O)C2O)C(O)C(O)C1OC1OC(CO)C(O)C(O)C1OC1OC(C)C(O)C(O)C1O (stereo unspecified) was what?
Response line: No

Prompt line: In this assay, the call recorded for `O=C1c2cccnc2C(=O)c2c1c(C(=O)OCCN1CCOCC1)c1ccccn21` was what?
Response line: Yes

Prompt line: In this assay, the call recorded for `N=c1ccn2c(n1)O[C@@H]1[C@@H](O)[C@H](CO)O[C@@H]12` was what?
Response line: No

Prompt line: In this assay, the call recorded for `C=C(CN1CCN(c2cccc(F)c2)CC1)c1ccc(C(=O)Nc2ccccc2N)cc1` was what?
Response line: No

Prompt line: In this assay, the call recorded for `CC(C)Oc1ccc(C(=O)N[C@H](CNC(=O)CN(C)C)Cc2ccc(-c3cn4cccc([C@H](C)O)c4n3)cc2)cc1Cl` was what?
Response line: Yes

====

Field: TGI. Provide a value for each of the molecules that follow.
test system: XF 498 CNS; test: NCI tumour cell line growth inhibition, 48 h

// known answers, use as guide
molecule	TGI
COc1cc(-c2cc(CCC(=O)Nc3ccccc3[N+](=O)[O-])n(-c3ccc([N+](=O)[O-])cc3[N+](=O)[O-])n2)ccc1O	> 100 µM
O=c1/c(=C/c2ccc3c(c2)OCO3)sc2nnc(-c3ccco3)n12	> 100 µM
O=C(O)CNS(=O)(=O)c1ccc(NC(=O)Nc2ccccc2)cc1	> 100 µM
Oc1cc2c(cc1O)-c1[nH]ncc1CC2	86.7 µM
CC(C)(O)[C@H](CCO)O[Si](c1ccccc1)(c1ccccc1)C(C)(C)C	20.7 µM

Need TGI for each of these molecules.
1. O=C(CSc1nnc(-c2ccc(N=Cc3ccc(Cl)cc3)cc2)o1)Nc1cccc(Cl)c1
2. S=C(Nc1ccccc1)N1N=C2c3ccccc3CC[C@H]2[C@@H]1c1ccccc1
3. COc1ccc(/C(C)=N/NC(N)=S)c(OC)c1
4. CN(C)/C(N)=N/C(N)=S
5. CCNCCCCNCC
6. COc1cc([C@@H]2c3cc4c(c(O)c3C[C@H]3COC(=O)[C@@H]32)OCO4)cc(OC)c1O
7. COC(=O)NN1C(C)=C(C(=O)OC)C2(CCOC2=O)C1(C)O (stereo not drawn)

Response line:
> 100 µM
> 100 µM
> 100 µM
> 100 µM
> 3750 µM
0.702 µM
> 100 µM

Prompt line: For the molecule `CC1=C(C(=O)Nc2ccccc2C)C(c2ccc(C3C(C(=O)Nc4ccccc4C)=CNC=C3C(=O)Nc3ccccc3C)cc2)C(C(=O)Nc2ccccc2C)=C(C)N1` , give its reported TGI.
Response line: 41.6 µM

====

system: TK-10 renal; test: NCI tumour cell line growth inhibition, 48 h
Field: TGI. Provide a value for each of the molecules that follow.

// known answers, use as guide
molecule	system	TGI
Cc1n[nH]c(=O)n1N1C(=O)c2ccccc2C1=O	TK-10 renal	> 100 µM
COC(Cc1ccccc1)NC(C)=O (configuration not stated)	TK-10 renal	> 100 µM
CCNCCNC(=O)c1ccc(Br)cc1	TK-10 renal	> 100 µM
COc1ccc(-c2coc3cc(OC)cc(O)c3c2=O)cc1	TK-10 renal	84.4 µM

Need TGI for each of these molecules.
1. COc1ccc(CNc2nc(NCc3ccc(OC)cc3)c3n[nH]c(C(C)C)c3n2)cc1
2. CCNc1ncnc2n[nH]nc12

Response line:
1: 24.4 µM; 2: > 100 µM
